Each recorded value in this set is attributed to PubChem BioAssay (NCI).

# measurement-description: NCI Yeast Anticancer Drug Screen. Data for the mlh1 rad18 strain (AID 175)
# setup-conditions: S. cerevisiae mlh1 rad18 strain growth inhibition; at 50.0 µM; active compounds read high
The panel holds about 79,000 compounds, 15% with a hit somewhere; the sample as a whole holds those more often.
Catalogue of molecules with associated growth inhibition
measurement-name: growth inhibition (%)

                                    molecule   measurement_name  readout_units  value_measured
 0  COC(=O)C1C(=O)C=C(O)C2CCCCC21 (centres undefined)  growth inhibition              %             2.5
 1  CC1COS(=O)(=O)CS(=O)(=O)O1 (centres undefined)  growth inhibition              %           -16.1
 2          O=C1c2ccccc2-c2oc(=O)c3ccccc3c21  growth inhibition              %           -15.9
 3  O=[N+]([O-])c1cc(Cl)cc2c1-c1c(Cl)cc(Cl)cc1C2  growth inhibition              %            4.05
 4                           O=Nc1ccc(Br)cc1  growth inhibition              %            -7.5
 5         O=NN(CCCl)C(=O)NCCc1cccc[n+]1[O-]  growth inhibition              %           -57.6
 6                           CC(C)CCNCCCCCCl  growth inhibition              %            67.1
 7          N#CC/C(C#N)=C/OC(=O)c1ccc(Cl)cc1  growth inhibition              %           -7.15
 8  CCC(C#N)NC(=O)NC(C#N)CC (centres undefined)  growth inhibition              %           -42.1
 9  CCCCCCCC(=O)OC(CC)CCCC (centres undefined)  growth inhibition              %            -1.2
10                CC(Cc1ccco1)(C(=O)O)C(=O)O  growth inhibition              %           -11.6
11              Fc1ccccc1/C=C/c1cnnc2ccccc12  growth inhibition              %            3.15
12  CC(O)(c1ccco1)c1nc2ccccc2s1 (centres undefined)  growth inhibition              %           -11.8
13        CN1CCC(=O)C(c2ccccc2)(c2ccccc2)CC1  growth inhibition              %           -26.7
